# Test system: SNB-19
# assay-procedure: NCI tumour cell line growth inhibition, 48 h
Active and inactive are the calls of the source. Rule as the data show it: active = GI50 up to about 1.1 µM and inactive = higher.
Outcomes: active, inactive

molecule	tested-on	class
Cc1nc2c(sc3nc4ccccc4n32)c(=O)[nH]1	SNB-19	inactive
CO[C@H]1[C@@H](O)[C@@H](C)O[C@@H](O[C@H]2CC[C@@]3(C)[C@H](CC[C@@H]4[C@@H]3CC[C@]3(C)[C@@H](C5=CC(=O)OC5)CC[C@]43O)C2)[C@@H]1O [ODOROSIDE H]	SNB-19	active
COC(Cc1ccccc1)NC(C)=O (stereo not given)	SNB-19	inactive
O=c1ssc(Cl)c1Cl	SNB-19	inactive
C=CCN(c1cc(OCc2ccccc2)c2c(c1)c(C)cn2S(=O)(=O)c1ccccc1)S(C)(=O)=O	SNB-19	inactive

###

# Tested on: KM12
# assay-procedure: NCI tumour cell line growth inhibition, 48 h
The source made the active and inactive calls. No stated cut-off is given here; in the data, active = GI50 up to about 1.1 µM and inactive = higher.
Classes used: class 1 for active, class 0 for inactive

molecule	class
O=C(O)C(O)c1ccc(F)cc1 (stereo unspecified)	class 0
COc1cc2c(cc1OCCCCCN1C(=O)c3cccc4cccc(c34)C1=O)N=C[C@@H]1CCCN1C2=O	class 1
CCOc1ccc(/C=C2/C(=O)N=C(N)N=C2N)cc1OCC	class 0
Nn1c(S)nnc1N/N=C1/C(=O)Nc2ccccc21	class 0
CCCCCCCCCCCCCCCCOCC(CP(=O)([O-])OCC[n+]1ccccc1)OC (stereo unspecified)	class 0
CCOC(=O)CCC(NC(=O)OCc1ccccc1)C(=O)NC(CCC(=O)OCC)C(=O)NC(CCC(=O)OCC)C(=O)NC(CCC(=O)OCC)C(=O)NC(CCC(=O)OCC)C(=O)OCC (stereo unspecified)	class 0
N#CC1CCCCCCCCCCC(=O)N(CCCl)C1=O (stereo unspecified)	class 0
O=C1NC(=S)NC(=O)C1=Cc1cccc2cc3ccccc3cc12	class 0
COCc1nc2c(OC)c(-c3nc4ccc(N5CCN(C)CC5)cc4[nH]3)cc(OC)c2[nH]1	class 0
COc1ccc2nc3c([N+](=O)[O-])ccc4c3c(c2c1)N=CN4CCN(C)C	class 0
Cn1cc(NC(=O)[C@H]2CCC(N)=N2)cc1C(=O)NCCC(=N)N	class 0
COC(=O)C(=O)Cc1nc2ccccc2o1	class 0
O=c1[nH]nc(-c2ccccc2)n1/N=C/c1ccncc1	class 0
CC1C(c2ccccc2)N(C)C(c2ccccc2)C(C)C1(O)c1ccccc1 (stereo unspecified)	class 0
CC(=O)O[C@H]1CCC2[C@@H]3CCC4c5nonc5CC[C@]4(C)C3CC[C@@]21C (stereo partly specified)	class 0
COc1ccc(-c2c3c(nc4nc(SCCc5ccccc5)nc(N)c24)CCCC3)cc1OC	class 0

###

# Tested on: HCT-116
# assay-procedure: NCI tumour cell line growth inhibition, 48 h
Activity calls are given as the source filed them. Rule as the data show it: active = GI50 up to about 1.1 µM and inactive = higher.
Classes used: active, inactive

molecule	tested-on	class
CC(C)(C)Nc1noc(=O)n1C(C)(C)C	HCT-116	inactive
CC1C(c2ccccc2)N(C)C(c2ccccc2)C(C)C1(O)c1ccccc1 (stereo unspecified)	HCT-116	inactive
C=C(C)[C@H]1C=C[C@@H](OC(C)=O)[C@@]2(COC(C)=O)[C@H](OC(=O)CCC)[C@H]3[C@@H](OC(C)=O)[C@@H](C)C[C@]3(O)C(=O)[C@@](C)(OC(C)=O)[C@H]12	HCT-116	inactive
N#CC(c1cc(Cl)ncn1)c1nc2cc(C(F)(F)F)ccc2s1 (stereo unspecified)	HCT-116	inactive
O=C(c1ccc(Cl)cc1)N(C(=S)N1CCN(c2ccccn2)CC1)c1ccccc1	HCT-116	inactive
COC(=O)C1Cc2c(C)cccc2C1=O (stereo unspecified)	HCT-116	inactive
CCO[C@]12C[C@H](OC)[C@@]3(O)CC(C1[C@H]3O)C13C4C2[C@H](OC)C1[C@](COC)(CN4CC)[C@H](O)C[C@@H]3OC (stereo partly specified)	HCT-116	inactive
COc1ccc(/N=C(\C)c2ccncc2)cc1	HCT-116	inactive
c1cncc(C2c3[nH]c4ccccc4c3CCN2CCN2CCCCC2)c1 (stereo unspecified)	HCT-116	inactive
COc1cc(/C=C2\C(=O)N(c3cccc(NC(C)=O)c3)C(c3ccccc3)S2(=O)=O)cc(OC)c1OC (stereo unspecified)	HCT-116	inactive
O=c1ssc(Cl)c1Cl	HCT-116	inactive
O=C1c2ccccc2C(=O)N1/N=C1/SC(=N\c2ccccc2)/C(=N/c2ccccc2)N1c1ccccc1	HCT-116	inactive
CCc1ccc(Nc2ccc([N+](=O)[O-])cc2[N+](=O)[O-])cc1	HCT-116	inactive
COc1ccc(C(=CCC(C)C2CCC3[C@@H]4C(OC(C)=O)CC5CC(OC(C)=O)CC[C@]5(C)C4CC(OC(C)=O)[C@]23C)c2ccc(OC)cc2)cc1 (stereo partly specified)	HCT-116	inactive
CC(C)(CC(=O)Nc1ccccc1)C(=O)O	HCT-116	inactive
Clc1ccc(Cc2nc3ccccc3o2)cc1	HCT-116	inactive
COc1cc2c([C@@H](OC(=O)c3ccccc3)c3ccc4c(c3)OCO4)nccc2c(OC)c1OC	HCT-116	inactive
CCOC(=O)c1[nH]c(Br)c(-c2ccc(OC)c(OC)c2)c1Br	HCT-116	active
CSc1n[nH]c2[nH]nc(C)c12	HCT-116	inactive
CCN(CC)C(=O)Cn1c(C)cc2ccccc21	HCT-116	inactive
O=C1c2ccccc2C(=O)C2C3c4ccccc4C(c4ccccc43)C12 (stereo unspecified)	HCT-116	inactive
